Reference for the values: ChEMBL document CHEMBL1127880

Target: Angiotensin II receptor (Rattus norvegicus, UniProt P29089+P25095+P35351)
Sequence (P29089 whole entry): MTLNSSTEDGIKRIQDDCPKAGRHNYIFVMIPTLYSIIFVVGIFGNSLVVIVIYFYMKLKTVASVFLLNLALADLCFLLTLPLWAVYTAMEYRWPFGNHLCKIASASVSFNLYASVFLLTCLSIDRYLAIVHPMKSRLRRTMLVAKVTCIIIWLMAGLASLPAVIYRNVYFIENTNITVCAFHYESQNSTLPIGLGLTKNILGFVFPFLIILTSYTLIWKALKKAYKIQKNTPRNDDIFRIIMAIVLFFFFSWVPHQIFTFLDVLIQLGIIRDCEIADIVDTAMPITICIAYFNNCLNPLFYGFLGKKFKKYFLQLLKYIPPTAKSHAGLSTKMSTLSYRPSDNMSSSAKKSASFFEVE
Sequence (P25095 whole entry): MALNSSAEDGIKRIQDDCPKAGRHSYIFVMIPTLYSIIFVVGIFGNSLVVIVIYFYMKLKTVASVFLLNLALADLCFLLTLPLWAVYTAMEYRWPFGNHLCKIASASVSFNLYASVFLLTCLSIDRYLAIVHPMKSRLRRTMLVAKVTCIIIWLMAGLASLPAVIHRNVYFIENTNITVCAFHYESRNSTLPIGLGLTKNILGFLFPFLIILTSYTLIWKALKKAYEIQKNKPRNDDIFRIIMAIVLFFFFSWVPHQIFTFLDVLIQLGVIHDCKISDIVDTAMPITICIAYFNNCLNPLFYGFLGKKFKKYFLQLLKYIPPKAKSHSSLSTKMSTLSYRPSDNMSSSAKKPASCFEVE
Sequence (P35351 whole entry): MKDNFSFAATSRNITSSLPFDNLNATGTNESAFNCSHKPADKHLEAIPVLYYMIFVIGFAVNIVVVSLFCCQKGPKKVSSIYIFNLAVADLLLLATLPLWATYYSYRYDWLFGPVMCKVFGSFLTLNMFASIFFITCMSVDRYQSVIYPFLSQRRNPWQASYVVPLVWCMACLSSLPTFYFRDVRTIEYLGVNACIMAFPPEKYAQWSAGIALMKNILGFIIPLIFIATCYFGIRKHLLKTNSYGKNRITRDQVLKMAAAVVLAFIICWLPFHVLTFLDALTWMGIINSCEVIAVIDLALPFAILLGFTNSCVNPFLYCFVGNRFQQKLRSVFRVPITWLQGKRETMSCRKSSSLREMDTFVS
Test: Tested in vitro for inhibition of [125I]AII to rat uterine membranes
Type: cell membranes, Membrane
measured-attribute: IC50 (nM)

1: CCCCc1nc(CCCC)n(Cc2ccc(-c3cccnc3-c3nn[nH]n3)cc2)n1
2: CCCCc1nc(CCCC)n(Cc2ccc(-c3ccncc3-c3nn[nH]n3)cc2)n1
IN: Quick check, higher IC50 between 1 and 2 ? Please identify the chosen entry by its label.
OUT: 2
(2: 250 nM, 1: 110 nM)

I: CCCCc1nc(CCCC)n(Cc2ccc(-c3ncccc3-c3nn[nH]n3)cc2)n1
II: CCCCc1nc(CCCC)n(Cc2ccc(-c3cnccc3-c3nn[nH]n3)cc2)n1
IN: Looking at recorded values for IC50, does I or II come in lower? Please identify the chosen entry by its label.
OUT: I
